test: growth suppression of beta-catenin knockout HCT116, pilot screen, human colon tumor cells (AID 823); settings: CellTiter-Glo, 60 h, at 10 µM, active compounds read low;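 further: 0% = wells killed by 20 µM Hyamine and 100% = untreated DMSO cell wells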
Results filed as inconclusive are left out.
Assign viability to each entry below.
Numeric answer only, unit % assumed.

Quick one: give measured viability for CC(C)CCN(C)C1CCN(C(=O)Nc2c(F)cccc2F)CC1
90.6

Quick one: give measured viability for Cn1c(SCc2c(F)cccc2Cl)nnc1-c1cnccn1
96.5

Quick one: give measured viability for COc1ccc(NC(=O)NCCCN2CCCC2=O)cc1
105

Quick one: give measured viability for COc1cc(C2C(C(=O)Nc3ccccc3OC)=C(C)Nc3ncnn32)ccc1O (stereo not drawn)
100

Quick one: give measured viability for Cc1ccc(Cl)cc1N1CCN(C(=O)C2CCN(c3nnc(-n4cccc4)s3)CC2)CC1
64

Quick one: give measured viability for O=C(O)c1c2c(nc3ccc(S(=O)(=O)N4CCC(C(=O)N5CCCCC5)CC4)cc13)CCCC2
97.3

Quick one: give measured viability for O=C(NC(O)C(=O)c1ccccc1)c1cccs1 (stereo not drawn)
95.4

Quick one: give measured viability for CCN1CCN(c2cc(C)c3cc(NC(=O)c4cnccn4)ccc3n2)CC1
84.5

Quick one: give measured viability for CN1CCN(CCCNC(=O)c2cn(C)c3ccc(S(=O)(=O)N(C)C)cc3c2=O)CC1
103

Quick one: give measured viability for COC(=O)c1cc(OC)c(OC)cc1-n1cnc2cc(OC)c(OC)cc2c1=O
97.4

Quick one: give measured viability for COc1ccc(NC(C)=O)cc1NC(=O)CSc1nnc(-c2cccnc2)n1C
104

Quick one: give measured viability for Cc1ccc(N2CC(c3nc4ccccc4n3C)CC2=O)cc1C (stereo not drawn)
103

Quick one: give measured viability for CC1CCc2nn(CC(=O)NC3CCCC3)cc2C1 (stereo not drawn)
105

Quick one: give measured viability for O=C(CN1CCOc2ccccc21)NCc1ccc(F)cc1
91.4

Quick one: give measured viability for CCn1cc(C2=NC(c3ccccc3)CO2)c2ccccc21 (stereo not drawn)
91.6

Quick one: give measured viability for COc1ccc(S(=O)(=O)N2CCC(C(=O)N3CCc4ccccc4C3)CC2)cc1
93.5

Quick one: give measured viability for Cc1cccc(OCC(=O)NCc2ccncc2)c1C
99.4

Quick one: give measured viability for CCc1nnc(NC(=O)CCN2C(=O)CCC2=O)s1
97.3

Quick one: give measured viability for CCOc1ccccc1NC(=O)CSc1nnc(Cn2c(=O)sc3ccccc32)n1C
91.5

Quick one: give measured viability for CCN(C(=O)c1sc(N)c(C#N)c1C)C1CCCCC1
92.1

Quick one: give measured viability for COc1ccc(OC)c2c1sc(=NC(=O)C(C)(C)C)n2C
84.1

Quick one: give measured viability for Cc1onc(-c2ccccc2Cl)c1C(=O)NCc1ccc2c(c1)cc(C)n2C
95.5

Quick one: give measured viability for CCN1C(=O)N(CC)C(O)(c2ccccc2)C1(O)c1ccccc1 (stereo not drawn)
97.1

* * *

assay: growth suppression of PTEN-deleted HCT116, pilot screen, cell-based, HCT116 clonal line, CellTiter-Glo (AID 824); conditions: 60 h, at 10 µM, active compounds read low;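 further: 0% = 20 µM Hyamine control and 100% = vehicle cell control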
Results filed as inconclusive are left out.
Observable: viability (%)
Numeric answer only, unit % assumed.

Quick one: give measured viability for O=C(C1CCCN(S(=O)(=O)c2cccc3cccnc23)C1)N1CCc2ccccc21 (stereo not given)
66.7

Quick one: give measured viability for O=C(NCCc1ccccc1)c1ccc2c(c1)N(Cc1ccccc1)C(=O)CS2=O (stereo not given)
88.7

Quick one: give measured viability for CCN(Cc1ccccc1)S(=O)(=O)c1ccc(S(=O)(=O)N2CCN(CCC#N)CC2)cc1
83.9

Quick one: give measured viability for CCOc1ccccc1C(=O)Nc1nnc(C(C)C)s1
91.5

Quick one: give measured viability for CCOC(=O)c1cc(-c2ccc(C)cc2)n(CC(=O)NCc2ccco2)c1C
77.5

Quick one: give measured viability for Cc1ccccc1OCC(=O)Nc1ccccc1N1CCOCC1
84.7

Quick one: give measured viability for CCOC(=O)C1CCCCN1Cc1cc(Cl)ccc1O (stereo not given)
81

Quick one: give measured viability for Fc1ccc(OCc2nc(-c3ccc(Br)o3)no2)c(F)c1
97.7

Quick one: give measured viability for C#CC(C)(C)NC(=O)CSc1nc2c(c(=O)n(C)c(=O)n2C)n1CCCC
89.4

Quick one: give measured viability for O=C(c1ccccc1F)N1CCN(S(=O)(=O)c2ccc3c(c2)OCCO3)CC1
91.3

Quick one: give measured viability for CCSc1nnc(-c2ccc(Cl)cc2Cl)o1
85.4

Quick one: give measured viability for C=CCn1c(SCCCC)nc(O)cc1=O
102

Quick one: give measured viability for COc1ccccc1-c1nnc(NC(=O)C(C)SC2=NCCS2)s1 (stereo not given)
91.2

Quick one: give measured viability for COc1ccc(C(=O)NCCn2ccc3ccccc32)cc1OC
81.9

Quick one: give measured viability for CCOC(=O)C1CCN(CC(O)COc2ccc(C(C)=O)cc2)CC1 (stereo not given)
91.6

Quick one: give measured viability for CN(C)S(=O)(=O)c1ccc2c(c1)c(=O)c(C(=O)N1CCN(c3ccccn3)CC1)cn2C
104

Quick one: give measured viability for Cc1cc2cc(CNC(=O)Cc3cccs3)ccc2n1C
69

Quick one: give measured viability for CC(=O)N1CCc2cc(C(=O)CN3CCC(C)CC3)ccc21
93.6

Quick one: give measured viability for Cc1ccc2[nH]c(=O)c3cc(C(=O)N(C)Cc4ccco4)sc3c2c1
67.5

Quick one: give measured viability for Cc1ccc(S(=O)(=O)N(CC(=O)N2CCCC2)C2CCCCC2)cc1
95

Quick one: give measured viability for COCCN1C=C(C(=O)OC)C(c2ccc3c(c2)OCO3)C(C(=O)OC)=C1
102

Quick one: give measured viability for CCc1ccc2[nH]cc(C(=O)OCCOC)c(=O)c2c1
87.5

Quick one: give measured viability for CCOC(=O)c1ccccc1NC(=O)CN(c1cccc(OC)c1)S(C)(=O)=O
83.3

Quick one: give measured viability for O=C(NCCC1=CCCCC1)C1CCN(c2nnc(-n3cccc3)s2)CC1
82.2

Quick one: give measured viability for CCN(CC(=O)NCc1ccc(F)cc1)C(=O)C1CCN(C(=O)Nc2ccccc2)CC1
98.6

Quick one: give measured viability for COc1ccc(OC)c(NC(=O)COC(=O)c2ccc(S(=O)(=O)N3CCOCC3)cc2)c1
91.9

Quick one: give measured viability for CCN1C(=O)c2ccc(-c3nc4ccccc4c(=O)o3)cc2C1=O
94.7

Quick one: give measured viability for CCCNC(=O)C1CC(=O)N(c2ccc(OCC(=O)Nc3cccc(C)c3C)cc2)C1 (stereo not given)
97.7

Quick one: give measured viability for CCN(CC)S(=O)(=O)c1ccc(-c2nnc3sc4cccc(C)c4n23)cc1
72.9

Quick one: give measured viability for Cn1c(C(=O)N2CCN(c3ccccc3F)CC2)cc2c(=O)n(C)c3ccccc3c21
98.6

Quick one: give measured viability for COc1ccc(C2NC(=O)NC(C)=C2C(=O)Nc2cccc(C)c2C)cc1 (stereo not given)
103

Quick one: give measured viability for COCc1cc(C)nc2sc(C(=O)Nc3nccs3)c(N)c12
97.5

Quick one: give measured viability for CCn1nc(C(=O)OCC(=O)c2ccc3c(c2)OCCO3)c2ccccc2c1=O
90.3

Quick one: give measured viability for CCCC(=O)Nc1nnc(-c2ccc(Cl)s2)o1
91.2

Quick one: give measured viability for CC(CCc1ccccc1)NC(=O)CN1CCOc2ccccc21 (stereo not given)
83.1

Quick one: give measured viability for Cc1ccc(C(=O)NCCCC(=O)O)o1
96.9

Quick one: give measured viability for O=C(NC1CCCCC1)C1CC(=O)N(c2ccc(Cl)cc2)C1 (stereo not given)
90.4

Quick one: give measured viability for CCOc1ccc(C2CC(c3cccc(OC)c3)n3nc(N)nc3N2)cc1 (stereo not given)
92.3

Quick one: give measured viability for COc1ccc(C2C(C(=O)N3CCOCC3)CCC(=O)N2c2cc(OC)c(OC)c(OC)c2)cc1 (stereo not given)
102

Quick one: give measured viability for CCOC(=O)N1CCC(C(=O)Nc2ccc(OCC)cc2)CC1
93.9

Quick one: give measured viability for Cc1ccc(Cl)cc1N1CCN(C(=O)CCC(=O)O)CC1
91.3

Quick one: give measured viability for Cn1nc(-c2ccc(Cl)cc2)c2cc(C(=O)N3CCN(C(=O)c4ccco4)CC3)sc21
66.2

Quick one: give measured viability for CCN1CCN(Cc2ccc(NC(=O)Nc3ccccc3OC)cc2)CC1
105

Quick one: give measured viability for CCOC(=O)N1CCN(C(=O)CSc2nnc(-c3ccc(C)c(C)c3)o2)CC1
97.4

Quick one: give measured viability for Cc1ccc(Cn2c3ccccc3c3cn[nH]c(=O)c32)cc1
91.1

These data points were gathered from PubChem BioAssay.
